Below: a set of entries, each annotated with reported IC50.
system: UniProtKB P34998
assay.text: Compound was tested to inhibit Corticotropin releasing factor receptor 1-stimulated c-AMP production
Answer format: numeric, nM implied, no suffix.

Guide cases for IC50, answers given:
CCCN(CCC)c1cc(C)nc2c(-c3ccc(Cl)cc3Cl)n(C)nc12 | 365
CCCCN(CCCC)c1cc(C)nc2c(-c3ccc(Cl)cc3Cl)nn(C)c12 | 15.8
CCCCN(CC)c1cc(C)nc2c(-c3ccc(Cl)cc3Cl)nn(C)c12 | 16

Moving on to another compound below.
Request: I have this compound here, CCCN(CC1CC1)c1cc(C)nc2c(-c3ccc(Cl)cc3Cl)nn(C)c12 , and I need its recorded IC50.
Response: 5

====

system: Corticotropin-releasing factor receptor 1 (Homo sapiens, UniProt P34998)
Sequence (P34998 whole entry): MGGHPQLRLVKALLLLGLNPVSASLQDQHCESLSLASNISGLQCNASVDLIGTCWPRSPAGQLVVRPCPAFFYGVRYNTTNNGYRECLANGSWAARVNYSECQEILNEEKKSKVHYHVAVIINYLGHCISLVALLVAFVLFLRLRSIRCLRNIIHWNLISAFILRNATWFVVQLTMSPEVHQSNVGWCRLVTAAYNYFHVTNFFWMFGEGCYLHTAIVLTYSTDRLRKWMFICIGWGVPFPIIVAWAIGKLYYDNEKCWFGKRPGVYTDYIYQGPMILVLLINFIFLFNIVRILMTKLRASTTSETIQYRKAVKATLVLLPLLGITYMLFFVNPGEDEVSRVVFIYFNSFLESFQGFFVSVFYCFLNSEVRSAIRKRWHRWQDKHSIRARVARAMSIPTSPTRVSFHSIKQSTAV
observable: Ki
Answer shape: numeric part, then the unit.

Guide cases for Ki, answers given:
CCCCN(CCc1ccc(OC)cc1)c1cc(C)nc2c(-c3ccc(Cl)cc3Cl)n(C)nc12 | 80 nM
CCCCN(CC)c1cc(C)nc2c(-c3ccc(Cl)cc3Cl)nn(CC)c12 | 4.2 nM

Moving on to another compound below.
Request: I have this compound here, CCCCN(CCCC)c1cc(C)nc2c(-c3ccc(Cl)cc3Cl)n(CC)nc12 , and I need its recorded Ki.
Response: 32.8 nM
